Tested on: S. mutans
condition.context: Streptococcus mutans
Ends that are not written are not given here.
property: % viability remaining

Consider the reported % viability remaining for these substances:
[
  {
    "substance": "TFFRLFNRSFTQALDKGGGKNLRIIRKGIHIIKKY-NH2 (C-terminus assumed) [G15-D15_C16G2]",
    "% viability remaining": "47%"
  },
  {
    "substance": "TFFRLFNRSQTQALGKGGGKNLRIIRKGIHIIKKY-NH2 (C-terminus assumed) [F10 to Q10_C16G2]",
    "% viability remaining": "73%"
  },
  {
    "substance": "TFFRLFNRSFTQALFKGGGKNLRIIRKGIHIIKKY-NH2 (C-terminus assumed) [G15-F15_C16G2]",
    "% viability remaining": "29%"
  },
  {
    "substance": "TFFRLLNRSFTQALGKGGGKNLRIIRKGIHIIKKY-NH2 (C-terminus assumed) [F6-L6_C16G2]",
    "% viability remaining": "43%"
  },
  {
    "substance": "TFFRLFNRSFTQALAKGGGKNLRIIRKGIHIIKKY-NH2 (C-terminus assumed) [G15-A15_C16G2]",
    "% viability remaining": "47%"
  },
  {
    "substance": "TLFRLFNRSFTQALGKGGGKNLRIIRKGIHIIKKY-NH2 (C-terminus assumed) [F2-L2_C16G2]",
    "% viability remaining": "63%"
  }
]

Pending substance:
Query: Request: % viability remaining, test system S. mutans, entry TWFRLFNRSFTQALGKGGGKNLRIIRKGIHIIKKY-NH2 (C-terminus assumed) [F2-W2_C16G2]
Response: 45%

---

Tested on: S. mutans
condition.context: Streptococcus mutans
Ends that are not written are not given here.
property: % viability remaining (%)
Use % as the unit, but write only the number.

Query: Name the reported % viability remaining value associated with the substance TQFRLFNRSFTQALGKGGGKNLRIIRKGIHIIKKY-NH2 (C-terminus assumed) [F2 to Q2_C16G2]
Response: 47

Query: Name the reported % viability remaining value associated with the substance TLFRLLNRSLTQALGKGGGKNLRIIRKGIHIIKKY-NH2 (C-terminus assumed) [F2F6F10-L2L6L10_C16G2]
Response: 26

Query: Name the reported % viability remaining value associated with the substance TFFRLFNRSLTQALGKGGGKNLRIIRKGIHIIKKY-NH2 (C-terminus assumed) [F10-L10_C16G2]
Response: 30

Query: Name the reported % viability remaining value associated with the substance TAFRLANRSATQALGKGGGKNLRIIRKGIHIIKKY-NH2 (C-terminus assumed) [F2/6/10-A2/6/10_C16G2]
Response: 78

Query: Name the reported % viability remaining value associated with the substance TFFRLQNRSFTQALGKGGGKNLRIIRKGIHIIKKY-NH2 (C-terminus assumed) [F6 to Q6_C16G2]
Response: 79

The reported numbers originate from patent US20160031941A1.
